Would you mind telling me the reported pIC50 of each entry?
Molecular target: HCV NS5B (Hepatitis C virus genotype 1b)
Construct: The protein was expressed with an 18 amino acid C-terminal truncation to enhance the solubility; made in house; host or cells: E. coli BL21(DE3)
Sequence (Q9WMX2 2420-2992): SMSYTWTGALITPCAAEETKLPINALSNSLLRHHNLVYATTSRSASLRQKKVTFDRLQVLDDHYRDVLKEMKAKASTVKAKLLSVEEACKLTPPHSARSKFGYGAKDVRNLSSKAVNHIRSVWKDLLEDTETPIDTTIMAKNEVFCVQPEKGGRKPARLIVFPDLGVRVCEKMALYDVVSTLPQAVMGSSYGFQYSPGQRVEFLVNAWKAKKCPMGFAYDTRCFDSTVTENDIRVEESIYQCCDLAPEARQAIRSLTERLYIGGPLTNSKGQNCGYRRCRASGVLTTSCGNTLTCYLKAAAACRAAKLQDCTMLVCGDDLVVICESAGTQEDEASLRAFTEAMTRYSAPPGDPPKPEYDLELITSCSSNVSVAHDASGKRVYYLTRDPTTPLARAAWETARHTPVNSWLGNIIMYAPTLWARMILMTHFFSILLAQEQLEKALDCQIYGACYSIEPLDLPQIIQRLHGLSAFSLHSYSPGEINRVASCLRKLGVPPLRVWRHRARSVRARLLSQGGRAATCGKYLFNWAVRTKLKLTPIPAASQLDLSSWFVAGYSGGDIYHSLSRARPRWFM
Assay: Modified HCV NS5B RdRp enzyme assay (preincubation protocol)
Assay type: biochemical
Conditions: exact value
One number for each entry, as −log10 of the molar value.

Example compounds with recorded pIC50:
INSERT INTO measurements (compound, quantitymeasured, numericreadout) VALUES
  ('COc1ccc2c(c1)C=C(c1c(C(=O)N3C[C@@H](C)O[C@@H](C)C3)cnn1C1CCN(C)CC1)Cn1c-2c(C2CCCCC2)c2ccc(C(=O)NS(=O)(=O)C(C)C)cc21', 'pIC50', 8.27),
  ('COc1ccc2c(c1)C=C(c1c(C(=O)N3C[C@@H]4C[C@H]3CO4)cnn1C1CCC1)Cn1c-2c(C2CCCCC2)c2ccc(C(=O)NS(=O)(=O)C(C)C)cc21', 'pIC50', 8.27),
  ('COCC1CN(C(=O)c2cnn(-c3ccncc3C)c2C2=Cc3cc(OC)ccc3-c3c(C4CCCCC4)c4ccc(C(=O)NS(=O)(=O)C(C)C)cc4n3C2)CCO1 (stereo not drawn)', 'pIC50', 8.26),
  ('COc1ccc2c(c1)C=C(c1c(C(=O)N3CCOCC3)cnn1C1CCOCC1)Cn1c-2c(C2CCCCC2)c2ccc(C(=O)NS(=O)(=O)CC(C)C)cc21', 'pIC50', 8.38),
  ('COc1ccc2c(c1)C=C(c1c(C(=O)N3CC4CCC(C3)O4)cnn1C1CCC1)Cn1c-2c(C2CCCCC2)c2ccc(C(=O)NS(=O)(=O)C(C)C)cc21', 'pIC50', 8.41),
  ('COc1ccc2c(c1)C=C(c1c(C(=O)N3C4CCC3CN(C)C4)cnn1C1CCC1)Cn1c-2c(C2CCCCC2)c2ccc(C(=O)NS(=O)(=O)CC(C)C)cc21', 'pIC50', 8.48),
  ('COc1ccc2c(c1)C=C(c1ncn(C3CCC3)c1C(=O)N1CCOCC1)Cn1c-2c(C2CCCCC2)c2ccc(C(=O)NS(=O)(=O)C(C)C)cc21', 'pIC50', 8.74),
  ('CCOC(=O)c1cnn(C2CC[N+](C)([O-])CC2)c1C1=Cc2cc(OC)ccc2-c2c(C3CCCCC3)c3ccc(C(=O)NS(=O)(=O)C(C)C)cc3n2C1 (stereo not drawn)', 'pIC50', 8.29),
  ('COc1ccc2c(c1)C=C(c1c(C(=O)N3C4CCCCC3CCC4)cnn1C1CCC1)Cn1c-2c(C2CCCCC2)c2ccc(C(=O)NS(=O)(=O)C(C)C)cc21', 'pIC50', 8.15),
  ('COc1ccc2c(c1)C=C(c1c(C(=O)N3C[C@@H](C)O[C@@H](C)C3)cnn1C1CCOCC1)Cn1c-2c(C2CCCCC2)c2ccc(C(=O)NS(=O)(=O)C(C)C)cc21', 'pIC50', 8.59);

Let us examine a further case.
Query COc1ccc2c(c1)C=C(c1c(C(=O)N3C[C@@H](C)O[C@@H](C)C3)c(C)nn1C1CCC1)Cn1c-2c(C2CCCCC2)c2ccc(C(=O)NS(=O)(=O)C(C)C)cc21 yields pIC50 of 8.19

Each recorded value in this set is attributed to patent US8133884B2.
